Value source: the supplement of paper PMC9112550

# Test system: Escherichia coli TOP10
# procedure details: shrunken log2 fold change of peptide-encoding DNA abundance (4.5 h post-induction vs induction); higher = less antimicrobial activity (less host growth inhibition)
# condition summary: time post-induction: 4.5 h; library: site-saturation at positions 5, 18, 19, 20
Where shrunken log2 fold change equals or exceeds -0.1, the correct label is class 1; where it does not, the label is class 0.

Query: Entry RRIRLRPPRLPRPRPRPAGKPRP : is its shrunken log2 fold change no less than -0.1?
Result: class 0

Query: Entry RRIRFRPPRLPRPRPRPLCGPRP : is its shrunken log2 fold change no less than -0.1?
Result: class 0

Query: Entry RRIRQRPPRLPRPRPRPKHKPRP : is its shrunken log2 fold change no less than -0.1?
Result: class 1

Query: Entry RRIRYRPPRLPRPRPRPQNEPRP : is its shrunken log2 fold change no less than -0.1?
Result: class 0

Query: Entry RRIRERPPRLPRPRPRPKDKPRP : is its shrunken log2 fold change no less than -0.1?
Result: class 0

Query: Entry RRIRTRPPRLPRPRPRPLLDPRP : is its shrunken log2 fold change no less than -0.1?
Result: class 1

Query: Entry RRIRRRPPRLPRPRPRPHANPRP : is its shrunken log2 fold change no less than -0.1?
Result: class 1

Query: Entry RRIRGRPPRLPRPRPRPCMQPRP : is its shrunken log2 fold change no less than -0.1?
Result: class 1

Query: Entry RRIRPRPPRLPRPRPRPTFCPRP : is its shrunken log2 fold change no less than -0.1?
Result: class 1

Query: Entry RRIRHRPPRLPRPRPRPMREPRP : is its shrunken log2 fold change no less than -0.1?
Result: class 1

Query: Entry RRIRPRPPRLPRPRPRPISWPRP : is its shrunken log2 fold change no less than -0.1?
Result: class 1

Query: Entry RRIRNRPPRLPRPRPRPVSYPRP : is its shrunken log2 fold change no less than -0.1?
Result: class 1

Query: Entry RRIRARPPRLPRPRPRPLQHPRP : is its shrunken log2 fold change no less than -0.1?
Result: class 1

Query: Entry RRIRTRPPRLPRPRPRPMIYPRP : is its shrunken log2 fold change no less than -0.1?
Result: class 0

Query: Entry RRIRLRPPRLPRPRPRPNTGPRP : is its shrunken log2 fold change no less than -0.1?
Result: class 0

---

Hi there, I'd appreciate the recorded shrunken log2 fold change for every entry that follows.
# Tested on: Escherichia coli TOP10;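 further: peptides expressed intracellularly from a pBAD plasmid library in pooled LB shake-flask culture, induced with 0.3% L-arabinose, DNA abundance read by NGS, three biological replicates, DESeq2 with apeglm shrinkage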
# procedure details: shrunken log2 fold change of peptide-encoding DNA abundance (4.5 h post-induction vs induction); higher = less antimicrobial activity (less host growth inhibition)
# condition summary: time post-induction: 4.5 h; library: site-saturation at positions 5, 18, 19, 20
Lab note: record just the number, no unit beside it.

Query: # input sequence: RRIRVRPPRLPRPRPRPNYIPRP ; wanted: its shrunken log2 fold change
Result: -0.631

Query: # input sequence: RRIRWRPPRLPRPRPRPNEKPRP ; wanted: its shrunken log2 fold change
Result: 0.0011

Query: # input sequence: RRIRQRPPRLPRPRPRPAGPPRP ; wanted: its shrunken log2 fold change
Result: -0.000608

Query: # input sequence: RRIRRRPPRLPRPRPRPLFFPRP ; wanted: its shrunken log2 fold change
Result: 0.137

Query: # input sequence: RRIRSRPPRLPRPRPRPQLTPRP ; wanted: its shrunken log2 fold change
Result: -0.136

Query: # input sequence: RRIRVRPPRLPRPRPRPQGYPRP ; wanted: its shrunken log2 fold change
Result: 0.0811

Query: # input sequence: RRIRTRPPRLPRPRPRPHSMPRP ; wanted: its shrunken log2 fold change
Result: -0.665

Query: # input sequence: RRIRVRPPRLPRPRPRPTYQPRP ; wanted: its shrunken log2 fold change
Result: -0.388

Query: # input sequence: RRIRWRPPRLPRPRPRPRKRPRP ; wanted: its shrunken log2 fold change
Result: 0.726

Query: # input sequence: RRIRDRPPRLPRPRPRPKYCPRP ; wanted: its shrunken log2 fold change
Result: -0.0392

Query: # input sequence: RRIRFRPPRLPRPRPRPPKLPRP ; wanted: its shrunken log2 fold change
Result: 0.0996

Query: # input sequence: RRIRMRPPRLPRPRPRPSCQPRP ; wanted: its shrunken log2 fold change
Result: 0.166

Query: # input sequence: RRIRARPPRLPRPRPRPRMRPRP ; wanted: its shrunken log2 fold change
Result: 0.954

Query: # input sequence: RRIRHRPPRLPRPRPRPSDQPRP ; wanted: its shrunken log2 fold change
Result: 0.0718

Query: # input sequence: RRIRWRPPRLPRPRPRPTRSPRP ; wanted: its shrunken log2 fold change
Result: 0.723

Query: # input sequence: RRIRCRPPRLPRPRPRPHIGPRP ; wanted: its shrunken log2 fold change
Result: 0.000633

Query: # input sequence: RRIRDRPPRLPRPRPRPMHRPRP ; wanted: its shrunken log2 fold change
Result: -0.0439

Query: # input sequence: RRIRSRPPRLPRPRPRPKTQPRP ; wanted: its shrunken log2 fold change
Result: -0.0511

Query: # input sequence: RRIRNRPPRLPRPRPRPDGCPRP ; wanted: its shrunken log2 fold change
Result: 0.136

Query: # input sequence: RRIRLRPPRLPRPRPRPSNMPRP ; wanted: its shrunken log2 fold change
Result: -0.406

Query: # input sequence: RRIRARPPRLPRPRPRPCTYPRP ; wanted: its shrunken log2 fold change
Result: -0.173

Query: # input sequence: RRIRWRPPRLPRPRPRPLAWPRP ; wanted: its shrunken log2 fold change
Result: 0.474

Query: # input sequence: RRIRMRPPRLPRPRPRPDEFPRP ; wanted: its shrunken log2 fold change
Result: 1.49

Query: # input sequence: RRIRLRPPRLPRPRPRPLFRPRP ; wanted: its shrunken log2 fold change
Result: -0.388

Query: # input sequence: RRIRDRPPRLPRPRPRPHKPPRP ; wanted: its shrunken log2 fold change
Result: -0.000627

Query: # input sequence: RRIRDRPPRLPRPRPRPKYYPRP ; wanted: its shrunken log2 fold change
Result: -0.193

Query: # input sequence: RRIRTRPPRLPRPRPRPNWMPRP ; wanted: its shrunken log2 fold change
Result: 0.286

Query: # input sequence: RRIRIRPPRLPRPRPRPGALPRP ; wanted: its shrunken log2 fold change
Result: -0.111

Query: # input sequence: RRIRYRPPRLPRPRPRPSPNPRP ; wanted: its shrunken log2 fold change
Result: -1.34

Query: # input sequence: RRIRVRPPRLPRPRPRPNVFPRP ; wanted: its shrunken log2 fold change
Result: 0.0413

Query: # input sequence: RRIRYRPPRLPRPRPRPRCFPRP ; wanted: its shrunken log2 fold change
Result: -0.152

Query: # input sequence: RRIRNRPPRLPRPRPRPMNPPRP ; wanted: its shrunken log2 fold change
Result: -0.235
